Below, each entry is listed alongside its reported IC50.
# TARGET_SYSTEM: Polyadenylate-binding protein 1 (Homo sapiens, UniProt P11940)
# Sequence (P11940 whole entry): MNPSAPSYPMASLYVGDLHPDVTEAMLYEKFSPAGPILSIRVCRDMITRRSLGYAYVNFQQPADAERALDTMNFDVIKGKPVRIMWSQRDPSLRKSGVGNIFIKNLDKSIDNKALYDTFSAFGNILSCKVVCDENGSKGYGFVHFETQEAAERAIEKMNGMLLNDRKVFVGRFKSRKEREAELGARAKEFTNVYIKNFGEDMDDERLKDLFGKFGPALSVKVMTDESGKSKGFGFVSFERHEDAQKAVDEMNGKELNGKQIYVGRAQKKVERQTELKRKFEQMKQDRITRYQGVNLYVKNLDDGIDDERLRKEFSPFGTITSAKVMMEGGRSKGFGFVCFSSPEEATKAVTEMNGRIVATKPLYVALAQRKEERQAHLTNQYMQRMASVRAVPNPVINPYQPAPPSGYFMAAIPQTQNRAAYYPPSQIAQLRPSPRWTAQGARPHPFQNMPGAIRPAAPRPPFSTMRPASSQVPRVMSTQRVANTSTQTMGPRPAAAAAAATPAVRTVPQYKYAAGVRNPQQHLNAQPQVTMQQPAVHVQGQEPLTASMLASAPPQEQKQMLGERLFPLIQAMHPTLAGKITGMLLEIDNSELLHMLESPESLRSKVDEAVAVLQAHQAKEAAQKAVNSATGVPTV
# ASSAY_SUMMARY: PABP1 MLLE–PAM2 binding inhibitor potency, dose response, biochemical, fluorescence polarization, FITC-PAM2 peptide (AID 602259)
# Format: functional
# CONDITION_NOTES: read-out: IC50_Mean
Activity calls are given as the source filed them.

Worked examples follow.
>  <MOLECULE>
Cc1n[nH]c2c(=S)[nH]c(=O)[nH]c12

>  <PARAMETER_MEASURED>
IC50

>  <RESULT>
> 66 µM (inactive)

$$$$
>  <MOLECULE>
CN(C(=O)CN1C(=O)c2cccc(N)c2C1=O)C1CCCCC1

>  <PARAMETER_MEASURED>
IC50

>  <RESULT>
32.6 µM (inactive)

$$$$
>  <MOLECULE>
COc1ccc(C(=O)NC(=S)Nc2cccc(NC(=O)c3ccco3)c2)cc1[N+](=O)[O-]

>  <PARAMETER_MEASURED>
IC50

>  <RESULT>
> 66 µM (inactive)

$$$$
>  <MOLECULE>
Nc1ccc(O)c2c1C(=O)c1ccccc1C2=O

>  <PARAMETER_MEASURED>
IC50

>  <RESULT>
24.3 µM (inactive)

$$$$
>  <MOLECULE>
O=C1CC(SC(=S)C2CCCC2=O)C(=O)N1 (centres undefined)

>  <PARAMETER_MEASURED>
IC50

>  <RESULT>
> 66 µM (inactive)

$$$$

Requested field: IC50. Item: CC(C)(C)C(=O)Nc1c2c(nn1-c1ccc(F)cc1)CSC2
> 66 µM (inactive)

Likewise for CCOC(=O)CSc1nc2c(c(=O)[nH]c(=O)n2C)n1C/C=C(/C)Cl ?
> 66 µM (inactive)

Likewise for CCOC(=O)c1c(N)sc2c1CCS(=O)(=O)C2 ?
> 66 µM (inactive)

Likewise for O=C(CSc1nncc2ccccc12)N1CCOCC1 ?
> 66 µM (inactive)

====

# TARGET_SYSTEM: Bcl-2-related protein A1 (Mus musculus, UniProt Q07440)
# Sequence (Q07440 whole entry): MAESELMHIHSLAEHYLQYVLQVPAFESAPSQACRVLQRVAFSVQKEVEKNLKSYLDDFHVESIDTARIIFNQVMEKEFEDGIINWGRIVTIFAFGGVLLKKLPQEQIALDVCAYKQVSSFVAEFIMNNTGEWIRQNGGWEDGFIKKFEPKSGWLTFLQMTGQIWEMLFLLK
# ASSAY_SUMMARY: Bfl-1 binding inhibitors, SAR follow-up, biochemical, fluorescence polarization (AID 1070)
Calls of active or inactive are those of the source.
Below, each entry is listed alongside its reported IC50.

>  <STRUCTURE_AS_SMILES>
O=C1C(Cl)=C(N2CCN(CCOCCO)CC2)C(=O)N1c1ccc([N+](=O)[O-])cc1

>  <RESULT>
2.59 µM (active)

$$$$

Requested field: IC50. Item: O=C1C(Cl)=C(Cl)C(=O)N1c1c(Cl)cccc1Cl
> 100 µM (not active)

Likewise for O=C1C(Cl)=C(N2CCN(c3ccc(Cl)cc3)CC2)C(=O)N1c1ccc(Cl)c(Cl)c1 ?
> 100 µM (not active)

Likewise for Clc1ccc(-n2nnc(-c3cccnc3Cl)n2)cc1Cl ?
> 100 µM (not active)

====

Below, each entry is listed alongside its reported IC50.
# TARGET_SYSTEM: UniProtKB Q9HC16
# Sequence (Q9HC16 whole entry): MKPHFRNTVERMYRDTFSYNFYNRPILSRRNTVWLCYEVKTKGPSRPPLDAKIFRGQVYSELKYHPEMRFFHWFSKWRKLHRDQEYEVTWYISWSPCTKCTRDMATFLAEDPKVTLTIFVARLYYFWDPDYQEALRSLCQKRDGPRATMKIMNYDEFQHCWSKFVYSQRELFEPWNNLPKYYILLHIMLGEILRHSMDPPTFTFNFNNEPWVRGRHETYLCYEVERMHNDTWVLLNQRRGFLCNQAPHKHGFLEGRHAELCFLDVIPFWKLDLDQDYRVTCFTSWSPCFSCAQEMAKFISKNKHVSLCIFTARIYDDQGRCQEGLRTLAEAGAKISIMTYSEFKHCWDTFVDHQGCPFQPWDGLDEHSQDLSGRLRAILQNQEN
# Type: functional
Active and inactive are the calls of the source.

>  <COMPOUND>
CCOc1ccc2c(c1)[N+](C)(C)C(C)(C)C=C2C

>  <TARGET_SYSTEM>
UniProtKB Q9HC16

>  <RESULT>
3.2 µM (active)

$$$$

Requested field: IC50. Item: C[N+]1(CC(O)c2ccccc2)CCCCCC1 (stereo not given)
4.26 µM (active)

Likewise for COc1cc(/C=C(/C#N)C(=O)NCCCc2ccccc2)ccc1OCC(=O)O ?
3.23 µM (active)

Likewise for CCn1c(SCC(=O)N2CCCC2)nnc1-c1ccc(N)cc1 ?
2.75 µM (active)

Likewise for CCN1C(NCC2CC2)=N[C@@H](c2cccc(C(F)(F)F)c2)C(C(=O)OC)=C1C ?
6.71 µM (active)

====

Below, each entry is listed alongside its reported EC50.
# TARGET_SYSTEM: Streptokinase A (Streptococcus pyogenes serotype M1, UniProt P10520)
# Sequence (P10520 whole entry): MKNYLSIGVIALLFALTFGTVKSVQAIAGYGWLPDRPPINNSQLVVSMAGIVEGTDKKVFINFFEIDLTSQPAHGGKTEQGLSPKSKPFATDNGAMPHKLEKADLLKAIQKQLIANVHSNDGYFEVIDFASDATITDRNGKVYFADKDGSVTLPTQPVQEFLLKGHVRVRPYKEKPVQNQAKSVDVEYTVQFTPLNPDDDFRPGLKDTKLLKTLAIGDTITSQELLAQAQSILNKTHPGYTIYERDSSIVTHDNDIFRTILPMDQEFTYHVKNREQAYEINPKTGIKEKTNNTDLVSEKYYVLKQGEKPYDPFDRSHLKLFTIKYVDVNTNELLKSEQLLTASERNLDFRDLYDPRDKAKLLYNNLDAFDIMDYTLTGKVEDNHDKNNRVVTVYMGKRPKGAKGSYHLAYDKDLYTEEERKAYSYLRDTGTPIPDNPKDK
# ASSAY_SUMMARY: S. pyogenes streptokinase expression inhibitors, potency, dose response, plasminogen activation absorbance, OD405 (AID 1914);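 also: secreted streptokinase activity via plasminogen activation per viability signal from cell pellet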
# Format: functional, Streptococcus pyogenes M1 GAS
Calls of active or inactive are those of the source.

Lab request: please report EC50 under test system Streptokinase A (Streptococcus pyogenes serotype M1, UniProt P10520) for CC1(C(=O)OCC(=O)Nc2nc(-c3ccc(F)c(F)c3)cs2)CC1(Cl)Cl (stereo not given)
7.2 µM (active)

====

# TARGET_SYSTEM: UniProt:P38532
# Sequence (P38532 whole entry): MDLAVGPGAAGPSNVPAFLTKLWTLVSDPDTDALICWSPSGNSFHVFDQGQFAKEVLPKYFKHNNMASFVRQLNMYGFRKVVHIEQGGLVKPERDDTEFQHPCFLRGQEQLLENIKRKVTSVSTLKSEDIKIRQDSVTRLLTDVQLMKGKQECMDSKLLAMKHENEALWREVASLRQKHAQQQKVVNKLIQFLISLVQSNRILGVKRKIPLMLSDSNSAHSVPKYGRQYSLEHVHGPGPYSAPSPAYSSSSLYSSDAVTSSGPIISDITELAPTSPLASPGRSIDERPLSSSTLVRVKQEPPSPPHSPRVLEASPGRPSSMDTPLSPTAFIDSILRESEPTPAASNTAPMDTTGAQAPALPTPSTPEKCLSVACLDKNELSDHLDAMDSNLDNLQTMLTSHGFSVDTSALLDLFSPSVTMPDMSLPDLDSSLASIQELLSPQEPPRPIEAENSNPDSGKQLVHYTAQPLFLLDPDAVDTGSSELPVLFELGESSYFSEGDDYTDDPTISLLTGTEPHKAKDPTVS
# ASSAY_SUMMARY: inhibition of MG132-induced HSE-luciferase signal, confirmation, cell-based, NIH3T3, luminescence, dose retest (AID 2382);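 also: NIH3T3 fibroblasts with HSF1-driven luciferase reporter stressed by proteasome inhibitor MG132; luminescence from HSF1-driven luciferase expression after 8 hours of MG132 stress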
# Assay type: functional
Activity calls are given as the source filed them.
PARAMETER_MEASURED: EC50

>  <STRUCTURE_AS_SMILES>
CC(=O)Oc1ccc(OC(C)=O)c(SCCCCCCl)c1

>  <RESULT>
7.65 µM (active)

$$$$

Requested field: EC50. Item: CCc1nc(SCC(=O)NCCc2ccc(OC)c(OC)c2)c2c(=O)n(C)c(=O)n(C)c2n1
> 195 µM (not active)

====

Below, each entry is listed alongside its reported IC50.
# TARGET_SYSTEM: Caspase-3 (Homo sapiens)
# Sequence (P42574 29-175 limits assumed): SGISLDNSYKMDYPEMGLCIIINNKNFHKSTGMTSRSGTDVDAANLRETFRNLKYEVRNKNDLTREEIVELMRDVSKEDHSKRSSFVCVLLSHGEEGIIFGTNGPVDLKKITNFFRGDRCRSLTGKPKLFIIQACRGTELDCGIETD
# Sequence (P42574 176-277 limits assumed): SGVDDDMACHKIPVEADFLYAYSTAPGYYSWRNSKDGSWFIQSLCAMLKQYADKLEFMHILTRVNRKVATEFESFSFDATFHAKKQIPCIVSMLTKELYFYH
# Type: functional
The source made the active and inactive calls.

>  <COMPOUND>
O=C(COC(=O)c1ccc([N+](=O)[O-])s1)NCc1ccc(F)cc1

>  <IC50>
9.32 µM (active)

$$$$

Lab request: please report IC50 under test system Caspase-3 (Homo sapiens) for O=C(Nc1ccc2ncccc2c1)c1cccc(Br)c1;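 also: Dose-response selectivity test against caspase-3 for candidate inhibitors of sentrin-specific proteases (SENPs)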
32.1 µM (active)

Likewise for O=C(O)C(Oc1ccc2cc(-c3ccc(Cl)cc3)c(=O)oc2c1)c1ccccc1 (configuration not stated) ?
38.3 µM (active)

Likewise for CN(C)c1ccc(/C=N/Nc2nc3ccccc3o2)cc1 ?
2.05 µM (active)

Likewise for Cc1ccc(C(=O)c2cc3ccccc3o2)cc1C ?
11.2 µM (active)

Likewise for S=C(Nc1ccc(Cl)cc1)Nc1cccc2cnccc12 ?
11.7 µM (active)

Likewise for CC(=O)Nc1ccc(-c2nc3cc(Cl)ccc3o2)cc1 ?
54.9 µM (active)

====

Below, each entry is listed alongside its reported EC50.
# TARGET_SYSTEM: Zinc finger protein mex-5 (Caenorhabditis elegans)
# Sequence (Q9XUB2 whole entry): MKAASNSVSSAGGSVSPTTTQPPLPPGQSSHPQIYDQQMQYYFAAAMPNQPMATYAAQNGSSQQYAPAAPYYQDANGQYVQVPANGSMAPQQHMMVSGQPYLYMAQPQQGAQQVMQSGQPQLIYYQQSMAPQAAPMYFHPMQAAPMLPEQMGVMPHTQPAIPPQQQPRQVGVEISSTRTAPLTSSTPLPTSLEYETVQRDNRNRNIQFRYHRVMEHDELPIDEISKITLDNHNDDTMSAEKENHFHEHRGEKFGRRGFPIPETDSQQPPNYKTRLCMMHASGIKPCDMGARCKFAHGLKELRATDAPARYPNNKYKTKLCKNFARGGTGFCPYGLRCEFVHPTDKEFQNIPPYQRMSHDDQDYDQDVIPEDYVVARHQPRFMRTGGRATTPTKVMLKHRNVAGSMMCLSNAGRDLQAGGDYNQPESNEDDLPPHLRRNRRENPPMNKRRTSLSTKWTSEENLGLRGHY
# ASSAY_SUMMARY: MEX-5/TCR-2 RNA interaction inhibitors, dose response, biochemical, C. elegans, fluorescence polarization (AID 1960)
Calls of active or inactive are those of the source.

>  <STRUCTURE_AS_SMILES>
O=C(NCc1cccs1)C1CCN(S(=O)(=O)c2ccc(Br)s2)CC1

>  <RESULT>
> 300 µM (not active)

$$$$

Requested field: EC50. Item: Oc1[nH]c2ccccc2c1N=Nc1cccc(Cl)c1
45.4 µM (active)

====

# TARGET_SYSTEM: Zinc finger protein mex-5 (Caenorhabditis elegans, UniProt Q9XUB2)
# ASSAY_SUMMARY: MEX-5/TCR-2 RNA interaction inhibitors, dose response, biochemical, C. elegans, fluorescence polarization (AID 1960)
The source made the active and inactive calls.
Below, each entry is listed alongside its reported EC50.

Worked examples follow.
>  <COMPOUND>
COCCCNC(=O)CCC(=O)NNc1nc2ccccc2c2nc(C)nn12

>  <EC50>
1.13 µM (active)

$$$$
>  <COMPOUND>
CCCCN1C(=O)/C(=C/C=C2\Oc3ccccc3N2CC)SC1=S

>  <EC50>
> 300 µM (not active)

$$$$
>  <COMPOUND>
CC1=CC(C)(C)N2C(=O)C3(C(C#N)=C(N)OC4=C3C(=O)CC(C)(C)C4)c3cc(C)cc1c32 (stereo not given)

>  <EC50>
> 300 µM (not active)

$$$$
>  <COMPOUND>
O=C(Cc1nc2ccccc2nc1O)c1ccccc1

>  <EC50>
> 300 µM (inconclusive)

$$$$

Consider the record given below.
Requested field: EC50. Item: CCCCN1C(=O)NC(=O)/C(=C(O)\C=C\c2ccc3c(c2)OCO3)C1=O
9.12 µM (inconclusive)
